These entries and their values trace back to ChEMBL document CHEMBL1149726.

Test system: L1210
Experiment Notes: Cytotoxicity against mouse L1210 cells at 10 ug/ml
Format: functional
Measured Endpoint: Activity (%)
Use % as the unit, but write only the number.

Look over these answered cases.
C[C@@]12CCC(=O)c3coc(c31)C(=O)c1cc3c(O)ccc(OS(=O)(=O)[O-])c3cc12.[Na+] [HALENAQUINOL SULFATE SODIUM] :: 22.4
C[C@@]12CC[C@H](O)[C@@H]3COC(=C31)C(=O)c1cc3c(cc12)C(O)CCC3=O (some centres undefined) :: 34.9
C[C@@]12CCCc3coc(c31)C(=O)c1cc3c(O)ccc(OS(=O)(=O)[O-])c3cc12.[Na+] [XESTOQUINOL SULFATE SODIUM] :: 25.4

Let us move to another entry and its Activity.
[ask] Fill in the recorded Activity for this compound, with L1210 as test system: C[C@@]12CC[C@H](O)[C@@H]3COC(=C31)C(=O)c1cc3c(cc12)C(=O)CCC3O (some centres undefined)
[reply] 14.5

----------
Recorded MIC by entry
Target: DNA topoisomerase 1 (Homo sapiens)
Experiment Notes: Inhibition of DNA topoisomerase 1
Use µg/mL as the unit, but write only the number.

Look over these answered cases.
C[C@@]12CC[C@H](O)[C@@H]3COC(=C31)C(=O)c1cc3c(cc12)C(O)CCC3=O (stereo partly specified) :: 12.5
C[C@@]12CCCc3coc(c31)C(=O)c1cc3c(cc12)C(=O)C=CC3=O :: 2
C[C@@]12CCCc3coc(c31)C(=O)c1cc3c(O)ccc(OS(=O)(=O)[O-])c3cc12.[Na+] [XESTOQUINOL SULFATE SODIUM] :: 10

[ask] Data request, read-out MIC, for C[C@@]12CCC(=O)c3coc(c31)C(=O)c1cc3c(cc12)C(=O)C=CC3=O
[reply] 0.4

[ask] And then C[C@@]12CC[C@H](O)[C@@H]3COC(=C31)C(=O)c1cc3c(cc12)C(=O)CCC3O (stereo partly specified) , what is it?
[reply] 2.5
